- tested_system: Phosphatidylinositol 5-phosphate 4-kinase type-2 alpha (Homo sapiens) (UniProt P48426)
- Sequence (P48426 whole entry, looked up): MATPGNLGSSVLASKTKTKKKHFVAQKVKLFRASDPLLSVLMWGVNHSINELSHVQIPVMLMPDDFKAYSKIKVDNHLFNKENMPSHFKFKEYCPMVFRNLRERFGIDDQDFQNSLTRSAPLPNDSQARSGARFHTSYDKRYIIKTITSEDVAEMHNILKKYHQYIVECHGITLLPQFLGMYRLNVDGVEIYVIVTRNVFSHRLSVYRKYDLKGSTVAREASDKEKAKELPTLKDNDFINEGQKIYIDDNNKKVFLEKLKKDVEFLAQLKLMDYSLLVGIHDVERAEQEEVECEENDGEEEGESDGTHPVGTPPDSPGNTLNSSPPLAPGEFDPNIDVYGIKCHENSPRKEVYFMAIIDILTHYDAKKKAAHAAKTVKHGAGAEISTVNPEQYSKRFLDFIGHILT
- test_name: qHTS for Inhibitors of phosphatidylinositol 5-phosphate 4-kinase (PI5P4K); note: value at the top dose of about 77 µM
- condition_summary: PI5P4Kalpha enzyme, ADP-Glo luminescence, 60 min
Hit rate of the full screen: of about 330,000 compounds, about 4,100 (1.2%) were called active. Roughly 2% stayed inconclusive and do not appear here. Rule for the calls: active = max response of -50% or lower; inconclusive = between -30% and -50%; inactive = -30% or higher. The sample as a whole holds a higher share of actives than the screen did.
In this exercise, the only acceptable responses are active, inactive

CCn1cc(CN2CCCC(C(=O)c3cccc(C(F)(F)F)c3)C2)cn1 (stereo not drawn) ... inactive
O=C1CC(=O)N(Cc2ccccc2)C(=O)N1CCCCCCN1C(=O)CC(=O)N(Cc2ccccc2)C1=O ... active
O=C(NCC1=C(c2ccc3ccccc3c2)C[C@@H]2CC[C@H]1N2Cc1ccco1)c1cccs1 ... inactive
O=C(O)CCn1cc(C=C2C(=O)NC(=S)NC2=O)c(-c2cccc(Br)c2)n1 ... active

Test call for this molecule, please: COC(=O)C1=C(c2ccc(OCc3ccccc3)cc2)C[C@@H]2CC[C@H]1N2C(=O)NCc1ccc(Cl)cc1
inactive

Test call for this molecule, please: O=C1NC(=O)C(Cc2ccccc2)C(=O)N1
inactive

Test call for this molecule, please: O=C1NC(=O)N(Cc2ccco2)C(=O)/C1=C\c1cccn1CCOc1ccccc1
inactive

Test call for this molecule, please: CCOC(=O)c1cccc(C2=C(CNC(=O)c3ccncc3)[C@H]3CC[C@@H](C2)N3Cc2ccccc2)c1
inactive

Test call for this molecule, please: CSCCC(c1nnnn1C(C)(C)C)N1CCC(n2c(=O)[nH]c3ccccc32)CC1 (stereo not drawn)
inactive

Test call for this molecule, please: O=C1NC(=O)N(Cc2ccco2)C(=O)/C1=C\c1ccc(-c2ccc(F)cc2)o1
active

====

- tested_system: Phosphatidylinositol 5-phosphate 4-kinase type-2 alpha (Homo sapiens)
- test_name: qHTS for Inhibitors of phosphatidylinositol 5-phosphate 4-kinase (PI5P4K); note: value at the top dose of about 77 µM
- condition_summary: PI5P4Kalpha enzyme, ADP-Glo luminescence, 60 min
Among all 330,000 compounds or so, about 4,100 (1.2%) were called active. Inconclusive results (about 2%) are left out. How the source made its calls: active means max response of -50% or lower; inconclusive means between -30% and -50%; inactive means -30% or higher. The sample holds actives, similar compounds and a random draw of the others, so the mix is not that of the screen.
In this exercise, the only acceptable responses are true for active, false for inactive

Test call for this compound, please: CC(C)CN1Cc2cc(N3CCCCC3)ccc2-n2nncc2C1
false

Test call for this compound, please: O=C1NC(=O)C(C/C=C/c2ccccc2)C(=O)N1
true

Test call for this compound, please: Cc1c(C(=O)O)cccc1-n1c(C)cc(/C=C2\C(=O)NC(=O)N(c3ccc4c(c3)OCO4)C2=O)c1C
false
